# TARGET_DESC: Plasminogen (Homo sapiens, UniProt P00747)
# Sequence (P00747 97-580 limits assumed): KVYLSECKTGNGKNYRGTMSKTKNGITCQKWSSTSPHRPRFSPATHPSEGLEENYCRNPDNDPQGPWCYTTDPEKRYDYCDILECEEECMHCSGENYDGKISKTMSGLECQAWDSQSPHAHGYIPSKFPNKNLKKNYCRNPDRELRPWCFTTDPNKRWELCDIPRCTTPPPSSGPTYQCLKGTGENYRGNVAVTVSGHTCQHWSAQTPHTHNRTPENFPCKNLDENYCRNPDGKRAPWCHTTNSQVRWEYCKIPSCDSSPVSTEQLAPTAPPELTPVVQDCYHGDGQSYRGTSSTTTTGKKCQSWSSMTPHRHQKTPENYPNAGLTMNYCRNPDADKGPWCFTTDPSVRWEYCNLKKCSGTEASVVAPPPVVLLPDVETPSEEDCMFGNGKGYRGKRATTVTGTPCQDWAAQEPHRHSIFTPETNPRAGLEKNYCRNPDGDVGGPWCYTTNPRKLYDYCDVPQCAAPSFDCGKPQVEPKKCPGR
# Sequence (P00747 581-810 limits assumed): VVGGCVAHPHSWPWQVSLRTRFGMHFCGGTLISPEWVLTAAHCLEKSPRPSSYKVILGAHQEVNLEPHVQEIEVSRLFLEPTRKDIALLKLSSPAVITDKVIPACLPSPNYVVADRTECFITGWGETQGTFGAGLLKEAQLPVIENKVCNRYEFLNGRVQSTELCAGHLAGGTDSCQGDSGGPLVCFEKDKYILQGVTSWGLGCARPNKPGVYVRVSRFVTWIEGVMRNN
# MEASUREMENT_NOTES: Inhibitory activity of compound was evaluated against plasmin
# if measured IC50 < 800 nM: Criterion met  # else: Criterion not met

# count of solved cases: 5
COMPOUND	TARGET_DESC	ASSIGNED_CATEGORY
CCCCCCCCOC(=O)[C@H]1CC[C@H](CNC(=O)C(Cc2ccc(OC(=O)OCc3ccccc3Br)cc2)NC(=O)[C@H]2CC[C@H](CN)CC2)CC1 (some centres not stated)	Plasminogen (Homo sapiens, UniProt P00747)	Criterion not met
CCCCCCCCNC(=O)C(Cc1ccc(OCc2ccncc2)cc1)NC(=O)[C@H]1CC[C@H](CN)CC1 (some centres not stated)	Plasminogen (Homo sapiens, UniProt P00747)	Criterion met
CC(C)CCNC(=O)C(Cc1ccc(OC(=O)OCc2ccccc2Br)cc1)NC(=O)[C@H]1CC[C@H](CN)CC1 (some centres not stated)	Plasminogen (Homo sapiens, UniProt P00747)	Criterion met
NC[C@H]1CC[C@H](C(=O)NC(Cc2ccc(Oc3ncccn3)cc2)C(=O)Nc2cccc(C(=O)O)c2)CC1 (some centres not stated)	Plasminogen (Homo sapiens, UniProt P00747)	Criterion not met
CC(=O)c1ccc(NC(=O)C(Cc2ccc(OC(=O)OCc3ccccc3Br)cc2)NC(=O)[C@H]2CC[C@H](CN)CC2)cc1 (some centres not stated)	Plasminogen (Homo sapiens, UniProt P00747)	Criterion met

Req: Identify whether the compound NC[C@H]1CC[C@H](C(=O)NC(Cc2ccccc2)C(=O)Nc2ccc(CC(=O)O)cc2)CC1 (some centres not stated) records IC50 below 800 nM.
Resp: Criterion not met
